Target: Muscarinic acetylcholine receptor M4 (Homo sapiens)
Assay: M4-linked GIRK flux change, two-sided – cell-based, HEK293 M4/GIRK, thallium flux, BTC-AM, M4 allosteric agonist project, primary screen (AID 625);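 also: thallium influx through GIRK channels coupled to M4 in HEK293 cells with BTC-AM dye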
Conditions: at 10 µM, actives lie on both sides
test readout: fluorescence slope
Output spec: single numeric token, no unit.

Supply reported fluorescence slope belonging to this molecule: COc1ccc(OC)c(N(CC(=O)N2CCN(c3cc(Cl)ccc3C)CC2)S(C)(=O)=O)c1
0.00582

Supply reported fluorescence slope belonging to this molecule: COC(=O)Cn1c(C)nc2c(sc3nc(C)cc(C)c32)c1=O
0.00473

Supply reported fluorescence slope belonging to this molecule: O=C(CN1CCN(c2ncc(C(F)(F)F)cc2Cl)CC1)Nc1ccc2c(c1)OCO2
0.00584

Supply reported fluorescence slope belonging to this molecule: CC1(C)Cc2nc3oc4c(N(CCO)Cc5ccccc5)ncnc4c3cc2CO1
0.0057

Supply reported fluorescence slope belonging to this molecule: COc1cc(C(=O)N2CCC(c3nc(-c4cccnc4)no3)CC2)cc(OC)c1OC
0.00617

Supply reported fluorescence slope belonging to this molecule: COc1ccccc1C(=O)Nc1ccc(S(=O)(=O)N2CCOCC2)cc1
0.00422

Supply reported fluorescence slope belonging to this molecule: Cc1ccc(CNC(=O)CSc2n[nH]c(N)n2)cc1
0.00347

Supply reported fluorescence slope belonging to this molecule: COc1ccccc1-c1noc(-c2ccco2)n1
0.00616

Supply reported fluorescence slope belonging to this molecule: C=CCNC(=O)CSc1ccc(Cl)cc1
0.00478

Supply reported fluorescence slope belonging to this molecule: Cc1nn(-c2ccccc2)c(C)c1C(=O)OCC(=O)c1c(N)n(CC(C)C)c(=O)n(C)c1=O
0.00552

Supply reported fluorescence slope belonging to this molecule: Cc1ccc(S(=O)(=O)NCCCCC(NC(=O)OC(C)(C)C)C(=O)O)cc1 (stereo not drawn) (tested in a mixture with another compound)
0.00344

Supply reported fluorescence slope belonging to this molecule: O=C(NC1CCCc2ccccc21)C1CCN(S(=O)(=O)c2cnc[nH]2)CC1 (stereo not drawn)
0.00517

Supply reported fluorescence slope belonging to this molecule: CCOC(=O)N1CCC(NC(=O)c2ccc3nc(N4CCOCC4)sc3c2)CC1
0.00698

====

Assay: endothelial E-selectin expression blockers – imaging, HUVEC, immunofluorescence, MLSMR starter and 10KST1 sets, primary screen (AID 487);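 also: signal is fraction of cell area covered by stained E-selectin grains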
Conditions: HUVEC TNFalpha-induced E-selectin immunofluorescence imaging, at 2 µM; hits give high values
What inhibition was measured for each of the following?
Answer format: numeric, % implied, no suffix.

Supply reported inhibition belonging to this molecule: CCOC(=O)N1CCN(C(=O)C(NS(=O)(=O)c2cccc3nsnc23)c2ccccc2)CC1 (stereo unspecified)
51.1

Supply reported inhibition belonging to this molecule: CCOC(=O)C1CCN(C(=O)c2c(-c3c(Cl)cccc3Cl)noc2C)CC1
-89.8

Supply reported inhibition belonging to this molecule: O=c1c[n+]([O-])c2ccccc2n1OCc1ccccn1
-73

Supply reported inhibition belonging to this molecule: COc1cccc(C(=O)NCC(=O)n2nc(C)cc2C)c1
-70.4

Supply reported inhibition belonging to this molecule: O=C(NCC1COCCO1)C1CCN(S(=O)(=O)c2ccccc2)CC1 (stereo unspecified)
-28.6

Supply reported inhibition belonging to this molecule: Cc1ccc(CNC(=O)C2CCN(S(=O)(=O)c3c(C)noc3C)CC2)cc1
-2.1

====

Experiment: endothelial E-selectin expression blockers – imaging, HUVEC, immunofluorescence, MLSMR starter and 10KST1 sets, primary screen (AID 487);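 also: signal is fraction of cell area covered by stained E-selectin grains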
Settings: HUVEC TNFalpha-induced E-selectin immunofluorescence imaging, at 2 µM; hits give high values
test readout: inhibition (%)
Answer format: numeric, % implied, no suffix.

Supply reported inhibition belonging to this compound: CCn1c(C(=O)N2CCCC(C(=O)O)C2)cc2sccc21 (centres undefined)
-32.2

Supply reported inhibition belonging to this compound: COc1ccc(OC)c(N=C(C)C2=C(O)COC2=O)c1
-20.1

Supply reported inhibition belonging to this compound: Cc1occc1C(=O)Nc1cccc2ccccc12
-185

Supply reported inhibition belonging to this compound: Cc1ccc(C2N(c3ccc(Cl)c(Cl)c3)C(=O)C3CCCN32)o1 (centres undefined)
-11.2

====

Test: reduction of polyQ htt aggregates in cells – imaging, exon1htt(103Q)mCFP cells, high-content imaging, primary screen (AID 483);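 also: compound exposure lasted 3 days before fixation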
Details: exon1htt(103Q)mCFP cell line, aggregate imaging, at 2 µM; hits give high values
What inhibition of aggregation was measured for each of the following?
Answer format: numeric, % implied, no suffix.

Supply reported inhibition of aggregation belonging to this compound: CN(C)C(=O)C12CCC(C)(c3nc4ccccc4nc31)C2(C)C (centres undefined)
-24

Supply reported inhibition of aggregation belonging to this compound: CCNc1nc(OC)nc(Oc2ccc(=O)n(-c3ccccc3)n2)n1
8.6

Supply reported inhibition of aggregation belonging to this compound: CCCCOC(=O)CSc1nc2c(cc1C#N)C(=O)CC(C)(C)C2
-21.3

Supply reported inhibition of aggregation belonging to this compound: CC(C(=O)NCCCN1CCOCC1)n1cccc1C(=O)c1ccccc1 (centres undefined)
-8.2

====

Molecular target: Voltage-gated potassium channel subunit beta-2 (Rattus norvegicus) (UniProt P62483)
Sequence (P62483 whole entry, looked up): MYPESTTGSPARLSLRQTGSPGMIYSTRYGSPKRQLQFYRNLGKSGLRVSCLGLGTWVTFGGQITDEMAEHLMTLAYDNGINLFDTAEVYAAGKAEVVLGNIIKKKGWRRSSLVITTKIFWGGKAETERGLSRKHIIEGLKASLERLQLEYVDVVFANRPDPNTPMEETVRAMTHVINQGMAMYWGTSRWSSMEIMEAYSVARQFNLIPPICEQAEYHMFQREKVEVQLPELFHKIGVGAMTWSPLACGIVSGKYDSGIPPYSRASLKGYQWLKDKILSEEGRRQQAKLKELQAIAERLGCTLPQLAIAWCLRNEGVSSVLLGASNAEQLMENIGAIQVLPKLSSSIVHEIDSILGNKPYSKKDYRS
Assay: enhancers of rat Kvbeta2 NADPH turnover – biochemical, NADPH fluorescence, primary screen (AID 623);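 also: fluorescence intensity change per second fitted from 20 to 320 s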
Conditions: Recombinant KvBeta, NADPH fluorescence decrease slope, 10 min; at 10 µM; hits give low values
What NADPH fluorescence slope was measured for each of the following?
Output spec: single numeric token, no unit.

Supply reported NADPH fluorescence slope belonging to this compound: COC(=O)c1oc2ccc(Br)cc2c1NC(=O)CN1CCN(C)CC1
1.6e-05

Supply reported NADPH fluorescence slope belonging to this compound: CCOC(=O)N1CCN(S(=O)(=O)c2ccc(Br)s2)CC1
-1.3e-06

Supply reported NADPH fluorescence slope belonging to this compound: CCOC(=O)Cn1nnnc1CN(Cc1ccc(OC)cc1)Cc1cc2cc(C)cc(C)c2[nH]c1=O
-3.9e-05

Supply reported NADPH fluorescence slope belonging to this compound: COc1ccc2c(c1)c1c(n2C(C)=O)C(OC(C)=O)=NCC1
-2.6e-05

Supply reported NADPH fluorescence slope belonging to this compound: CCn1c(=O)cc(OCC(=O)NCCCN2CC(C)CC(C)C2)c2ccccc21 (configuration not stated)
-0.000129

Supply reported NADPH fluorescence slope belonging to this compound: O=C(CCn1c(=O)sc2ccccc21)Nc1cccnc1
0.000131

Supply reported NADPH fluorescence slope belonging to this compound: CC(=O)c1nnn(-c2nc(N3CCCC3)nc(N(c3ccccc3)c3ccccc3)n2)c1C
-5.5e-05

====

Target: Voltage-gated potassium channel subunit beta-2 (Rattus norvegicus) (UniProt P62483)
Assay: inhibitors of rat Kvbeta2 reductase activity – biochemical, NADPH fluorescence, primary screen (AID 622);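 also: slope of raw intensity against log time taken from 70 to 1610 s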
Details: recombinant KvBeta, 4-cyanobenzaldehyde reduction, at 10 µM, hits give high values
test readout: fluorescence slope
Output spec: single numeric token, no unit.

Report measured fluorescence slope on Voltage-gated potassium channel subunit beta-2 (Rattus norvegicus) (UniProt P62483); entry: O=C(CSc1nnnn1Cc1ccccc1)Nc1ccc2c(c1)OCO2
-0.257

Report measured fluorescence slope on Voltage-gated potassium channel subunit beta-2 (Rattus norvegicus) (UniProt P62483); entry: CCOC(=O)C1=C(CC)Nc2ccccc2N=C1NC(=O)Nc1ccccc1OC
-0.593

Report measured fluorescence slope on Voltage-gated potassium channel subunit beta-2 (Rattus norvegicus) (UniProt P62483); entry: CSc1nnc2c3ccccc3n(CCc3ccccc3)c2n1
-0.342
